System: HT-1080 cells
protocol-notes: Cellular dose response assay, HT-1080 with and without Fer-1
Type: cell-based, human
measurement-parameters: HT1080, without Fer-1; read-out: IC50 (uM) HT1080
Below: a set of entries, each annotated with reported IC50.

# molecule, assayed-system, unit-of-measurement, IC50
records = [
    ("COc1ccc(-c2ccc3c(C(=O)NC(C)(C)C(C)(C)OC(=O)CCl)nn(C)c3c2)cc1Cl", "HT-1080 cells", "µM", 0.59),
    ("Cn1nc(C(=O)NC(C)(C)C(C)(C)OC(=O)CCl)c2ccc(-c3ccc(N4CCOCC4)c(Cl)c3)cc21", "HT-1080 cells", "µM", 1.2),
    ("COc1c(Cl)cc(-c2ccc3c(C(=O)NC(C)(C)COC(=O)CCl)nn(C)c3c2)cc1Cl", "HT-1080 cells", "µM", 1.4),
    ("Cn1nc(C(=O)NC(C)(C)COC(=O)CCl)c2ccc(-c3ccc(OC(C)(C)C)cc3)cc21", "HT-1080 cells", "µM", 2.6),
    ("Cn1nc(C(=O)NC(C)(C)COC(=O)CCl)c2ccc(-c3ccc(N4CCOCC4)c(Cl)c3)cc21", "HT-1080 cells", "µM", 1.1),
    ("COc1ccc(CNS(=O)(=O)c2ccc(-c3ccc4c(C(=O)NC(C)(C)COC(=O)CCl)nn(C)c4c3)cc2)cc1", "HT-1080 cells", "µM", 3.5),
    ("COc1ccc(-c2ccc3c(-n4cc(CCOC(=O)CCl)nn4)nn(C)c3c2)cc1Cl", "HT-1080 cells", "µM", 9.5),
    ("Cn1nc(C(=O)NC(C)(C)COC(=O)CCl)c2ccc(-c3cccc(Cl)c3)cc21", "HT-1080 cells", "µM", 2),
    ("CCOCCOc1ccc(-c2ccc3c(C(=O)NC(C)(C)COC(=O)CCl)nn(C)c3c2)cc1", "HT-1080 cells", "µM", 1.9),
    ("COc1c(F)cc(-c2ccc3c(-n4cc(C(C)(C)COC(=O)CCl)nn4)nn(C)c3c2)cc1Cl", "HT-1080 cells", "µM", 8.4),
    ("CC(OC(=O)CCl)C(C)(C)NC(=O)c1nn(C)c2cc(-c3ccc(N4CCOCC4)c(Cl)c3)ccc12 (racemic)", "HT-1080 cells", "µM", 1),
    ("COc1ccc(-c2ccc3c(C(=O)NC(C)(C)COC(=O)CCl)nn(C)c3c2)cc1", "HT-1080 cells", "µM", 0.94),
    ("Cn1nc(C(=O)NC(C)(C)COC(=O)CCl)c2ccc(-c3cc4ccccc4s3)cc21", "HT-1080 cells", "µM", 1.7),
    ("Cn1nc(C(=O)NC(C)(C)C(C)(C)OC(=O)CCl)c2ccc(-c3ccc(C(F)(F)F)c(Cl)c3)cc21", "HT-1080 cells", "µM", 2.4),
    ("COc1c(Cl)cc(-c2ccc3c(C(=O)NC(C)(C)C(C)OC(=O)CCl)nn(C)c3c2)cc1Cl (racemic)", "HT-1080 cells", "µM", 1.6),
    ("COc1ccc(-c2ccc3c(C(=O)NCC(C)(C)OC(=O)CCl)nn(C)c3c2)cc1Cl", "HT-1080 cells", "µM", 3.7),
]
